# protocol: Photophysical characterization: fluorescence properties and fluorescence quantum yield (SPEX-fluorolog, relative to indocyanine green)
# Format: physicochemical
# assay.setup: dyes 7-14 table; formulation with Gd-complex perfluoroalkyl derivative (WO 97/26017 Ex. 33); 5 mol % of dye; 2 μM in dye
Structures can show the parent of a compound that is named as a salt.
So I've got a bunch of compounds here, and I need their Fluorescence quantum yield values.

Go through the items and report each one's Fluorescence quantum yield.
1. CCN1C(=CC=CC=CC2=[N+](CCCCS(=O)(=O)[O-])c3ccc(C(=O)NCCOCCC(F)(F)C(F)(F)C(F)(F)C(F)(F)C(F)(F)C(F)(F)C(F)(F)C(F)(F)F)cc3C2(C)C)C(C)(C)c2ccccc21 [Dye 11, sodium salt]
2. CCN1C(=CC=CC=CC=CC2=[N+](CCCCS(=O)(=O)[O-])c3ccc(C(=O)NCCOCCC(F)(F)C(F)(F)C(F)(F)C(F)(F)C(F)(F)C(F)(F)C(F)(F)C(F)(F)F)cc3C2(C)C)C(C)(C)c2ccccc21 [Dye 12, sodium salt]
3. CC1(C)C(=CC=CC=CC=CC2=[N+](CCCCS(=O)(=O)[O-])c3ccc(C(=O)N(CCOCCC(F)(F)C(F)(F)C(F)(F)C(F)(F)C(F)(F)C(F)(F)C(F)(F)C(F)(F)F)CC(O)CO)cc3C2(C)C)N(CCCCS(=O)(=O)[O-])c2ccccc21.[Na+] (stereo not drawn)
4. CC1(C)C(=CC=CC=CC2=[N+](CCCCS(=O)(=O)[O-])c3ccc(C(=O)N(CCOCCC(F)(F)C(F)(F)C(F)(F)C(F)(F)C(F)(F)C(F)(F)C(F)(F)C(F)(F)F)CC(O)CO)cc3C2(C)C)N(CCCCS(=O)(=O)[O-])c2ccccc21.[Na+] (stereo not drawn)
5. CCN1C(=CC=CC=CC2=[N+](CCCCS(=O)(=O)[O-])c3ccc(C(=O)N(CCOCCC(F)(F)C(F)(F)C(F)(F)C(F)(F)C(F)(F)C(F)(F)C(F)(F)C(F)(F)F)CC(O)CO)cc3C2(C)C)C(C)(C)c2ccccc21 (stereo not drawn) [Dye 13, sodium salt]
6. CCN1C(=CC=CC=CC=CC2=[N+](CCCCS(=O)(=O)[O-])c3ccc(C(=O)N(CCOCCC(F)(F)C(F)(F)C(F)(F)C(F)(F)C(F)(F)C(F)(F)C(F)(F)C(F)(F)F)CC(O)CO)cc3C2(C)C)C(C)(C)c2ccccc21 (stereo not drawn) [Dye 14, sodium salt]

A:
[0.14, 0.13, 0.14, 0.12, 0.16, 0.09]

Origin of values: patent US6447749B1
